- Test system: CP217
- procedureSummary: qHTS profiling for inhibitors of Plasmodium falciparum proliferation (AID 504749); note: nearly all actives have a fitted effect of over 60% in size
- details: P. falciparum in erythrocytes, SYBR Green DNA, 72 h; series mostly up to 28.7 µM
Inconclusive results are not listed. Activity calls are given as the source filed them. Calls come from the whole dose curve; as a rule, active = well fitted inhibition curve with a large enough effect; inconclusive = small, poorly fitted or top-dose-only effect; inactive = flat fitted curve, though single readings scatter.
// classify into active, inactive

The examples below pair each entry with its known result.
compound: c1ccc2sc(SN3CCOCC3)nc2c1
experimentalSystem: CP217
categoryLabel: inactive
//
compound: Cc1c(Nc2ncccc2C(=O)O)cccc1C(F)(F)F
experimentalSystem: CP217
categoryLabel: inactive
//
compound: COc1cc(/C=C/C(=O)N2CCN(CC(=O)N3CCCC3)CC2)cc(OC)c1OC
experimentalSystem: CP217
categoryLabel: inactive
//
compound: COc1cc(CNC(=O)CCCC/C=C/C(C)C)ccc1O
experimentalSystem: CP217
categoryLabel: inactive

Enquiry: Would you mind telling me which call this test gave CCC1C(=O)OCC1Cc1cncn1C (stereo not given) ?
Return: inactive

Enquiry: Record request — test call for CN1CCN(c2cc3c(nn2)Oc2ccccc2N3C)CC1
Return: inactive

Enquiry: Check the results log: what was the call for CC1(C)C[C@@H]1C(=O)N/C(=C\CCCCSC[C@H](N)C(=O)O)C(=O)O ?
Return: inactive

Enquiry: // param item: Oc1c(Br)cc(Br)c2cccnc12 ; yields the recorded call
Return: inactive
